System: Mus musculus
Test: Antinociceptive activity in Swiss mouse assessed as inhibition of acetic acid-induced abdominal contraction at 0.1 to 100 mg/kg, ip administered 30 mins before acetic acid challenge measured after 20 mins relative to control
Assay type: functional, Abdominal cavity
Details: dose mg/kg 0.1-100; route intraperitoneal
METRIC_NAME: inhibition (INH) (%)
Give the quantity in %, number only.

Which inhibition (INH) is reported with Mus musculus for this entry: "CC(=O)Oc1ccccc1C(=O)O" ?
83

Which inhibition (INH) is reported with Mus musculus for this entry: "Cc1c(N2C(=O)C(Cl)=C(Nc3ccc(Cl)cc3)C2=O)c(=O)n(-c2ccccc2)n1C" ?
97.4

Which inhibition (INH) is reported with Mus musculus for this entry: "Cc1c(N2C(=O)C(Cl)=C(Nc3ccc(F)cc3)C2=O)c(=O)n(-c2ccccc2)n1C" ?
96.7

Which inhibition (INH) is reported with Mus musculus for this entry: "Cc1c(N2C(=O)C(Cl)=C(Cl)C2=O)c(=O)n(-c2ccccc2)n1C" ?
99

Which inhibition (INH) is reported with Mus musculus for this entry: "Cc1c(N2C(=O)C(Cl)=C(Nc3ccc(Cl)c([N+](=O)[O-])c3)C2=O)c(=O)n(-c2ccccc2)n1C" ?
98.5

Which inhibition (INH) is reported with Mus musculus for this entry: "Cc1c(N2C(=O)C(Cl)=C(Nc3ccc(Br)cc3)C2=O)c(=O)n(-c2ccccc2)n1C" ?
97.5

Which inhibition (INH) is reported with Mus musculus for this entry: Cc1c(N(C)CS(=O)(=O)[O-])c(=O)n(-c2ccccc2)n1C.[Na+] [DIPYRONE SODIUM] ?
54

====

What MIC was measured for each of the following?
Tested on: Cryptococcus neoformans
Assay: Antifungal activity against Cryptococcus neoformans ATCC 32264 by agar dilution method
Format: functional

Looking for the measured MIC of "Cc1c(N2C(=O)C(Cl)=C(Nc3ccccc3)C2=O)c(=O)n(-c2ccccc2)n1C" , can you help?
> 100 µg/mL

Looking for the measured MIC of "Cc1c(N2C(=O)C(Cl)=C(Nc3ccc(Cl)c(Cl)c3)C2=O)c(=O)n(-c2ccccc2)n1C" , can you help?
> 100 µg/mL

Looking for the measured MIC of "Cc1c(N2C(=O)C(Cl)=C(NCc3ccccc3)C2=O)c(=O)n(-c2ccccc2)n1C" , can you help?
40 µg/mL

Looking for the measured MIC of "Cc1c(N2C(=O)C(Cl)=C(Nc3ccc(Br)cc3)C2=O)c(=O)n(-c2ccccc2)n1C" , can you help?
> 100 µg/mL

Looking for the measured MIC of CC(=O)N1CCN(c2ccc(OCC3COC(Cn4ccnc4)(c4ccc(Cl)cc4Cl)O3)cc2)CC1 (configuration not stated) , can you help?
5 µg/mL

Looking for the measured MIC of "Cc1c(N2C(=O)C(Cl)=C(Nc3ccc(F)cc3)C2=O)c(=O)n(-c2ccccc2)n1C" , can you help?
> 100 µg/mL

Looking for the measured MIC of "CCc1ccc(NC2=C(Cl)C(=O)N(c3c(C)n(C)n(-c4ccccc4)c3=O)C2=O)cc1" , can you help?
> 100 µg/mL

====

Test system: Nannizzia gypsea
Experiment: Antifungal activity against Microsporum gypseum C115 by agar dilution method
Assay type: functional
What MIC was measured for each of the following?
Give the quantity in µg/mL, number only.

Looking for the measured MIC of "Cc1c(N2C(=O)C(Cl)=C(Nc3ccc(F)cc3)C2=O)c(=O)n(-c2ccccc2)n1C" , can you help?
100

Looking for the measured MIC of "CCc1ccc(NC2=C(Cl)C(=O)N(c3c(C)n(C)n(-c4ccccc4)c3=O)C2=O)cc1" , can you help?
100

Looking for the measured MIC of CC(=O)N1CCN(c2ccc(OCC3COC(Cn4ccnc4)(c4ccc(Cl)cc4Cl)O3)cc2)CC1 (configuration not stated) , can you help?
6

Looking for the measured MIC of "Cc1c(N2C(=O)C(Cl)=C(Nc3ccc(Cl)c(Cl)c3)C2=O)c(=O)n(-c2ccccc2)n1C" , can you help?
100

====

What MIC was measured for each of the following?
Test system: Nannizzia gypsea
Assay: Antifungal activity against Microsporum gypseum C115 by agar dilution method
Format: functional

Looking for the measured MIC of "Cc1c(N2C(=O)C(Cl)=C(Nc3ccc(Br)cc3)C2=O)c(=O)n(-c2ccccc2)n1C" , can you help?
> 100 µg/mL

Looking for the measured MIC of "Cc1c(N2C(=O)C(Cl)=C(Nc3ccccc3)C2=O)c(=O)n(-c2ccccc2)n1C" , can you help?
> 100 µg/mL

Looking for the measured MIC of "Cc1c(N2C(=O)C(Cl)=C(NCc3ccccc3)C2=O)c(=O)n(-c2ccccc2)n1C" , can you help?
> 100 µg/mL
